- assay-system: Androgen Receptor (Homo sapiens, UniProt P10275, T878A)
- Construct: the AR gene was modified, using CRISPR/Cas9 editing, so the expressed AR protein included an 11 amino acid HiBiT tag; endogenous in cells; host or cells: clonal LnCaP-derived line, AR gene edited by CRISPR/Cas9
- Sequence (P10275 whole entry T878A): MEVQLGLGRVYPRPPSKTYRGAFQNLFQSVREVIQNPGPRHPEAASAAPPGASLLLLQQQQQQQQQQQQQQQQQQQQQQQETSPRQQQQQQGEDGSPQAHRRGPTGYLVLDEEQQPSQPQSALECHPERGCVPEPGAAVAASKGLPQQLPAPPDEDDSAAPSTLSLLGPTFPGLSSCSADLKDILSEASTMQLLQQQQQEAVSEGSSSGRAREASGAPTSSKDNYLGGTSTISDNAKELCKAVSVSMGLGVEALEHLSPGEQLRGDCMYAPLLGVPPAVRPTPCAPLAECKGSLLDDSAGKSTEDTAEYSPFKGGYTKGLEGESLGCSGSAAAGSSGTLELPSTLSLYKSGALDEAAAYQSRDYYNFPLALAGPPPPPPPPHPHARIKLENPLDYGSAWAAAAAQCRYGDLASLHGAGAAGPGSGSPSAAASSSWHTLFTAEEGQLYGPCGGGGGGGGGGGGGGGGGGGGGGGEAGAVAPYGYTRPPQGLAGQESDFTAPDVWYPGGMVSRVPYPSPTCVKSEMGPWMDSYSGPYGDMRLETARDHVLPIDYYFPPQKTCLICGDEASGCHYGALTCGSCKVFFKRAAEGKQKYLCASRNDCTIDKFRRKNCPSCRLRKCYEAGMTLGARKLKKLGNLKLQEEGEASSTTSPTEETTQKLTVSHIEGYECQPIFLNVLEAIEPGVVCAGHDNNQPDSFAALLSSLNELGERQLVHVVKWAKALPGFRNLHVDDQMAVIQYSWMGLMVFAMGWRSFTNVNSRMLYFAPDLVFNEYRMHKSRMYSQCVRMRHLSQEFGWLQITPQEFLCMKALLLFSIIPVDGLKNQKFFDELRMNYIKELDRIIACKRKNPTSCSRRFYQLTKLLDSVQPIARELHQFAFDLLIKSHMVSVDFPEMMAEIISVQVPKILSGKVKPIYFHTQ
- Sequence (Q96SW2 whole entry partner): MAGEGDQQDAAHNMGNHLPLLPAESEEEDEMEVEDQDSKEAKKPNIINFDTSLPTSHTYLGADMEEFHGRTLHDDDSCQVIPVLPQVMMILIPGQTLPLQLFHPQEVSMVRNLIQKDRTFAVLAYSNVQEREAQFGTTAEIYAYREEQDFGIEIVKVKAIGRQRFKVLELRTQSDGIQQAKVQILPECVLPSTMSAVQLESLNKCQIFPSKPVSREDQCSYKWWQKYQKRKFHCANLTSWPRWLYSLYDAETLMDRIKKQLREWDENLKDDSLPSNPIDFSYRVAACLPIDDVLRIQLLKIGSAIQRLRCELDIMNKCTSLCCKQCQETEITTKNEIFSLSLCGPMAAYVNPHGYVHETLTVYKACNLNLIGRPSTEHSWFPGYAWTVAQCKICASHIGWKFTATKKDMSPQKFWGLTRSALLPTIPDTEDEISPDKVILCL
- Sequence (Q16531 whole entry partner): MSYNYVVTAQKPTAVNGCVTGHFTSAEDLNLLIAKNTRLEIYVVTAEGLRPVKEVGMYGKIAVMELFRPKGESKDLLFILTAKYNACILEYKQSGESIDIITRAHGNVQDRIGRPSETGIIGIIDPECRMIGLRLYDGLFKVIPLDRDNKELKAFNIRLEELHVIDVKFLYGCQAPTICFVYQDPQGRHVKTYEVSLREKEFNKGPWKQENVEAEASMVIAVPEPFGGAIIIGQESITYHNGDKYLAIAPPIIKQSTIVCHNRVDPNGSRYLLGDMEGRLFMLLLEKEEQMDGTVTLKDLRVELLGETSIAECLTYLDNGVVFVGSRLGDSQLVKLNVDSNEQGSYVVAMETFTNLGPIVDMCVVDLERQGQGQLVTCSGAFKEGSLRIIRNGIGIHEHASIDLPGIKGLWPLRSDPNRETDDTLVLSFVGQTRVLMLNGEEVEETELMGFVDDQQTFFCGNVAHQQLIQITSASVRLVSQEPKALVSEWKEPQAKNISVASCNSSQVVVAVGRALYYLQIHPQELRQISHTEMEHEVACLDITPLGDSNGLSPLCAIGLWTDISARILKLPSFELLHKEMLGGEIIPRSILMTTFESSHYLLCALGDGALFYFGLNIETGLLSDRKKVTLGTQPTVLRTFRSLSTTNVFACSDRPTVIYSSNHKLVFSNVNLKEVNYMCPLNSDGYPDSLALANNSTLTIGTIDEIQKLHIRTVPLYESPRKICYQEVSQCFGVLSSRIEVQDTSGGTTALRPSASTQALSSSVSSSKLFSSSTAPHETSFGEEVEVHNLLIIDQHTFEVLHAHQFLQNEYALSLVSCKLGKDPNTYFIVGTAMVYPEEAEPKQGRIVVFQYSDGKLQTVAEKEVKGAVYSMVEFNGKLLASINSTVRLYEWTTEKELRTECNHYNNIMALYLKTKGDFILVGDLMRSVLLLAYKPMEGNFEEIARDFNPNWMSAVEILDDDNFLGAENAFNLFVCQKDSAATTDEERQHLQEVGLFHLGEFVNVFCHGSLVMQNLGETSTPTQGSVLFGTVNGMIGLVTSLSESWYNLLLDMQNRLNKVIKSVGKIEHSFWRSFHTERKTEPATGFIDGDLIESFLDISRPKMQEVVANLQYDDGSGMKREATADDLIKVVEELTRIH
- test-details: Androgen Receptor Degradation Assay (Nano-Glo HiBiT)
- Format: cell-based
- condition-details: LNCaP, 18 h, HiBiT-tagged AR in human LnCaP cells, read-out: mean asymptote max
measured-property: Dmax

>  <compound>
N#Cc1ccc(O[C@H]2CC[C@H](NC(=O)c3ccc(N4C5CCC4CC(CN4CCC(n6ncc7c(N8CCC(=O)NC8=O)cccc76)CC4)C5)nn3)CC2)cc1Cl (stereo partly drawn) [EAR230]

>  <assay-system>
Androgen Receptor (Homo sapiens, UniProt P10275, T878A)

>  <Dmax>
≥ 50%

$$$$
>  <compound>
N#Cc1ccc(O[C@H]2CC[C@H](NC(=O)c3ccc(N4CCC(CN5CCC(n6ccc7c(N8CCC(=O)NC8=O)cccc76)CC5)CC4)nc3)CC2)cc1C(F)(F)F [AR12]

>  <assay-system>
Androgen Receptor (Homo sapiens, UniProt P10275, T878A)

>  <Dmax>
≥ 50%

$$$$

Give the measured Dmax of N#Cc1ccc(O[C@H]2CC[C@H](NC(=O)c3ccc(N4CCC(CN5CCC(n6ccc7c(N8CCC(=O)NC8=O)nccc76)CC5)CC4)nn3)CC2)cc1Cl [EAR148] .
≥ 50%
